- test_target: furin, P09958;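 also: purified furin at 1:10 enzyme:substrate in 50 mM HEPES pH 7.5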
- Sequence (P09958 whole entry): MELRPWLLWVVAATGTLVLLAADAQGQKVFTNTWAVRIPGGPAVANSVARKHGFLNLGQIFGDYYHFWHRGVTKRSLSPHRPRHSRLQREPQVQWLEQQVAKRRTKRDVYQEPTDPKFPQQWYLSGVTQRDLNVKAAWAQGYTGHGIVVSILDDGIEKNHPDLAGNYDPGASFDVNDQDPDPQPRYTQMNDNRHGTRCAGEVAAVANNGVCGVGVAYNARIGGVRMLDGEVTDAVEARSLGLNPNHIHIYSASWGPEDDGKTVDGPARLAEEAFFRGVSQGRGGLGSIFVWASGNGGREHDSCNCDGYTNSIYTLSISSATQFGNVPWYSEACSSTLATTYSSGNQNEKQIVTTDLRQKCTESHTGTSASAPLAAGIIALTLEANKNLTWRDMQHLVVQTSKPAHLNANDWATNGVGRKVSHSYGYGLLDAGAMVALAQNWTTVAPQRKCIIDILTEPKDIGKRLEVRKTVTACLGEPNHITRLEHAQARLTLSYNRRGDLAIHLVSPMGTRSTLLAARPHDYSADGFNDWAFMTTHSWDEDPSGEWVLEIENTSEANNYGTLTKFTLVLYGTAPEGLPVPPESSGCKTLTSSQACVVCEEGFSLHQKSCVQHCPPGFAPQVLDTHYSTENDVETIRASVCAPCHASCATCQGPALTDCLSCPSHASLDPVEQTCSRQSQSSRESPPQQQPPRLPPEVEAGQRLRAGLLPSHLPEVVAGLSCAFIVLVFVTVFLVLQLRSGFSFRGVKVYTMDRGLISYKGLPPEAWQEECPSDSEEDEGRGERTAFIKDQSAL
- protocol: furin cleavage Z-score vs untreated control; higher = more cleavage, active = 3.5 or more, inactive = 1 or less, 8 variable residues between constant flanks
- setup_conditions: 7.5 min
Some of the results follow. How many sequences the whole screen found active is unknown.
Result category, one only: active, inactive

sequence_chain	class_label
CASTPCSAQLAGNASASA [HC2562]	inactive
CADNMEECSQAGNASASA [HC1821]	inactive
CAKLNRKYRSAGNASASA [FS-1132]	active
CACGPVYCFTAGNASASA [HC412]	inactive
CAVVICESAGAGNASASA [HC1531]	inactive
CARFYRSRKKAGNASASA [FS-1707]	inactive
CASGPCSAHLAGNASASA [HC2496]	inactive
CADPLVAEEDAGNASASA [HC1289]	inactive
CAVSAEEYVEAGNASASA [HC1203]	inactive
CALNRRRRREAGNASASA [FS-355]	active

INPUT: What classification did CARDARRLKEAGNASASA [FS-2900] end up with in this test?
OUTPUT: inactive

INPUT: Record request — test call for CAEVVTSGWVAGNASASA [HC2216]
OUTPUT: inactive

INPUT: # outcome recorded in this test, key = CAGAGNNTLHAGNASASA [HC447]
OUTPUT: inactive

INPUT: In this assay, the call recorded for CAHQRRKYRSAGNASASA [FS-796] was what?
OUTPUT: active

INPUT: Per the assay record, what outcome was assigned to CALHGRRRREAGNASASA [FS-456] ?
OUTPUT: active
